# Test system: KYSE-150 esophageal carcinoma cell line
# PROTOCOL SUMMARY: In vitro cell-based assay: cellular proliferation via BrdU incorporation (ELISA)
# Design: species or system human
# CONDITIONS USED: Homo sapiens, KYSE-150, 168 hours compound incubation
MEASURED ENDPOINT: IC50

Here are 3 compounds together with their reported answers.
>  <COMPOUND>
CN(c1ccc(-n2ccnc2)cc1)c1ccc2c(c1)CCC[C@H]2CNc1cnccc1C(=O)O [Example 193]

>  <IC50>
100 to 1000 nM

$$$$
>  <COMPOUND>
CN(c1ccc2c(c1)CCC[C@H]2CNc1cnccc1C(=O)O)c1ccn(C)c(=O)c1 [Example 155]

>  <IC50>
> 10000 nM

$$$$
>  <COMPOUND>
CN(c1ccc(F)cc1)c1ccc2c(c1)OCC[C@H]2CNc1cnccc1C(=O)O [Example 21]

>  <IC50>
≤ 100 nM

$$$$

Quick one: give me IC50 for each item below, same order please.
1. CN(c1ccc2c(c1)CCC[C@H]2CNc1cnccc1C(=O)O)c1cnn(C)c1 [Example 159]
2. Cc1cccc(N(C)c2ccc3c(c2)CCC[C@H]3CNc2cnccc2C(=O)O)n1 [Example 123]
3. O=C(O)c1ccncc1NC[C@@H]1CCOc2cc(C3CCCCC3)ccc21 [Example 35]
4. Cc1ccccc1Oc1ccc2c(c1)CCC[C@H]2CNc1cnccc1C(=O)O [Example 58]
5. CN(c1ccc2c(c1)COC2)c1ccc2c(c1)OCC[C@H]2CNc1cnccc1C(=O)O [Example 127]

1000 to 10000 nM
≤ 100 nM
1000 to 10000 nM
≤ 100 nM
100 to 1000 nM
